STUDY TARGET: human V2 receptor (Homo sapiens)
Construct: expressed in transfected cells; host or cells: CHO K1 (ATCC) expressing firefly luciferase under a CRE-responsive promoter
Sequence (P30518 whole entry): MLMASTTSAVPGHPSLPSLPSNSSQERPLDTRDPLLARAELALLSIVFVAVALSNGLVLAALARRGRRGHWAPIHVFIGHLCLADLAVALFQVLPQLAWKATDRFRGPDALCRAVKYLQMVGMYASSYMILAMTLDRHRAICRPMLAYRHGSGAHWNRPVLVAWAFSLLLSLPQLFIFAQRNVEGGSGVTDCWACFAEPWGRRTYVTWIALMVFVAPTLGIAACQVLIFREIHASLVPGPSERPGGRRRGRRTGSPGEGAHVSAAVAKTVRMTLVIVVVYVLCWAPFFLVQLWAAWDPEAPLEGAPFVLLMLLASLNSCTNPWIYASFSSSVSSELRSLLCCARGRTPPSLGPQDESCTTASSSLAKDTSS
TEST DETAILS: Cellular in vitro assay for determining vasopressin receptor activity, V2 receptor cell line (CHO, CRE-luciferase)
Assay type: cell-based
RUN CONDITIONS: CHO cell line transfected with human V2 receptor; [Arg8]-vasopressin at EC50 concentration; read-out: IC50 hV2
Protocol: B-1. Cellular In Vitro Assay for Determining Vasopressin Receptor Activity The identification of agonists and antagonists of the V1a and V2 vasopressin receptors from humans, rats and dogs as well as the quantification of the activity of the compounds of the invention is carried out using recombinant cell lines. […] The bioluminescence of the cell lines is detected using a suitable luminometer [Milligan G, Marshall F, Rees S, Trends in Pharmacological Sciences 17, 235-237 (1996)]. […]
MEASURE: log10 of IC50 (log10 of the value in µM)
The figures below represent log10 of IC50, where IC50 is stated in µM.

Required: log10 of IC50, one value per compound below.
1. CC1(C)COCCN1C(=O)c1cccc(Cl)c1-n1cnc(Cn2nc(-c3ccc(Cl)cc3)n(C[C@@H](O)C(F)(F)F)c2=O)n1
2. O=C(N[C@H]1C[C@H]1F)c1ncccc1-n1cnc(Cn2nc(-c3ccc(Cl)cc3)n(C[C@H](O)C(F)(F)F)c2=O)n1 (racemic) [Example 435]
3. O=C(c1ncccc1-n1cnc(Cn2nc(-c3ccc(Cl)cc3)n(C[C@@H](O)C(F)(F)F)c2=O)n1)N1CCS(=O)(=O)CC1
4. O=C(NC1CC1)c1cccnc1-n1nc(Cn2nc(-c3ccc(Cl)cc3)n(C[C@H](O)C(F)(F)F)c2=O)nc1C(=O)N1CCS(=O)(=O)CC1
5. O=C(NC1CC1)c1cccc(C(F)(F)F)c1-n1cnc(Cn2nc(-c3ccc(Cl)cc3)n(C[C@H](O)C(F)(F)F)c2=O)n1
6. O=C(c1ncccc1-n1cnc(Cn2nc(-c3ccc(Cl)cc3)n(C[C@H](O)C(F)(F)F)c2=O)n1)N1CCC[C@H]1C(F)(F)F

[1.51, 0.03, 1.51, 0.72, 0.18, 0.10]
